Molecular target: recombinant full-length human prolyl endopeptidase (PREP) (Homo sapiens)
Construct: To recombinant full-length human prolyl endopeptidase (PREP, R&D-Systems, 4308-SE)
Experiment: Biochemical human prolyl endopeptidase (PREP) assay with fluorescently labelled substrate
Details: substrate Z-Gly-Pro-AMC 50 μM, 32° C., 60 min; some as mean values from multiple independent determinations
attribute-measured: IC50
Write the quantity with the unit trailing the number.

Examples from the recorded data:
| compound | assay-target | IC50 |
| --- | --- | --- |
| O=C([C@@H]1CCCc2nn(Cc3ccnc(C(F)(F)F)c3)c(=O)n21)N1CCCC1 [Example 74] | recombinant full-length human prolyl endopeptidase (PREP) (Homo sapiens) | 4.75 nM |
| Cc1ccc(Cn2nc3n(c2=O)[C@H](C(=O)N2CC[S+]([O-])C2)CCC3)cc1 (mixture of isomers) [Example 141] | recombinant full-length human prolyl endopeptidase (PREP) (Homo sapiens) | 0.83 nM |
| N#C[C@@H]1CCCN1C(=O)[C@@H]1CCCc2nn(Cc3ccc(Cl)cn3)c(=O)n21 [Example 512] | recombinant full-length human prolyl endopeptidase (PREP) (Homo sapiens) | 0.15 nM |

# next compound below
Input O=C(C1C(C(F)(F)F)CCc2nn(Cc3ncc(Cl)cc3Cl)c(=O)n21)N1C[C@@H](F)[C@@H](F)C1 (mixture of isomers) [Example 287] . Output IC50: 23 nM

====

I'd appreciate it if you could supply pIC50 values for the items below.
Target: recombinant full-length human prolyl endopeptidase (PREP) (Homo sapiens, UniProt P48147)
Construct: To recombinant full-length human prolyl endopeptidase (PREP, R&D-Systems, 4308-SE)
Sequence (P48147 whole entry): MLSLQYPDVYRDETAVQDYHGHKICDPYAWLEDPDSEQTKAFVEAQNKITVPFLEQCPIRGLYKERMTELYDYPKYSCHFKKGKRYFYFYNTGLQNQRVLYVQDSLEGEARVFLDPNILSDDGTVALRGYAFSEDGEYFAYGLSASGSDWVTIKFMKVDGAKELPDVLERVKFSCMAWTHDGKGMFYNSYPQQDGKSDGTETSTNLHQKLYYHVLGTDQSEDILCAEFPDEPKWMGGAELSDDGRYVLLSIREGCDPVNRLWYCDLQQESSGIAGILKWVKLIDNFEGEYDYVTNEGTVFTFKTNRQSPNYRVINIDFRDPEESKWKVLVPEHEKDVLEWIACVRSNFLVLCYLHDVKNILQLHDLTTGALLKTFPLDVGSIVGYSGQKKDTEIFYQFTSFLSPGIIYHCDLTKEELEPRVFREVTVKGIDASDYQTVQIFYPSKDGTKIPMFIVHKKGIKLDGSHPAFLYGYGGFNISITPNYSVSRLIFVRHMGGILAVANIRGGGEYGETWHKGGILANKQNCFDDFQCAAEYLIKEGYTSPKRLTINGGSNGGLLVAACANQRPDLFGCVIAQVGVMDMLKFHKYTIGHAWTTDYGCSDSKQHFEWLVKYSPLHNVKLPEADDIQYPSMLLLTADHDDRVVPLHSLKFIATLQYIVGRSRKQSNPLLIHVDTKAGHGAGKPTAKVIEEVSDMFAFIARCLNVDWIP
Assay: Biochemical human prolyl endopeptidase (PREP) assay with fluorescently labelled substrate
Details: substrate Z-Gly-Pro-AMC 50 μM, 32° C., 60 min; some as mean values from multiple independent determinations
One number for each entry, as −log10 of the molar value.

Each of the following entries comes with a recorded value; kindly state pIC50 for each.
1. O=C([C@@H]1CCCc2nn(Cc3cccc(C(F)(F)F)c3)c(=O)n21)N1CCC(F)(F)C1
2. O=C([C@@H]1CCCc2nn(Cc3cccc(C(F)(F)F)n3)c(=O)n21)N1C[C@@H](F)[C@@H](F)C1
3. O=C([C@@H]1CCCc2nn(Cc3cc(C(F)(F)F)nc4ccccc34)c(=O)n21)N1CC[C@H](O)C1
4. Cc1ccc(C(=O)Cn2nc3n(c2=O)[C@H](C(=O)N2CC[C@H](F)C2)CCC3)cc1
5. O=C(C1CCCc2nn(CC3CCC(C(F)(F)F)CC3)c(=O)n21)N1CCCC1 (racemic)
6. CC(c1ccc(C(F)(F)F)nc1)n1nc2n(c1=O)[C@H](C(=O)N1C[C@@H](F)[C@@H](F)C1)CCC2 (single isomer, unassigned) [Example 218]
7. Cc1ccc(Cn2nc3n(c2=O)C(C(=O)N2CCC(F)(F)C2)CCC3)cc1 (racemic)
8. O=C(C1CCCc2nn(Cc3ccc(Cl)cn3)c(=O)n21)N1CCC(F)(F)C1 (racemic)

[9.14, 8.92, 7.74, 8.38, 8.28, 8.48, 8.84, 8.22]

Give me pIC50 for each of these compounds, listed below.
1. CC1CCC(C(=O)N2CC(F)C2)n2c1nn(Cc1ccc(F)c(Cl)c1)c2=O (racemic)
2. O=C([C@@H]1CCCc2nn(Cc3cccc(C(F)(F)F)c3)c(=O)n21)N1C[C@@H](F)[C@@H](F)C1
3. O=C(C1CC(C(F)(F)F)Cc2nn(Cc3ccc(Cl)nc3)c(=O)n21)N1CCC(F)(F)C1 (single isomer, unassigned) [Example 231]
4. O=C(C1C(C(F)(F)F)CCc2nn(Cc3ncc(Cl)cc3Cl)c(=O)n21)N1CCC(F)(F)C1 (single isomer, unassigned) [Example 290]

9.03
9.12
7.32
7.09

Consider the following items and state reported pIC50 for each.
1. O=C([C@@H]1CCCc2nn(Cc3ncc(F)cc3F)c(=O)n21)N1C[C@@H](F)[C@@H](F)C1
2. O=C([C@@H]1CCCc2nn(Cc3ncc(C(F)(F)F)cc3Cl)c(=O)n21)N1CC(F)C1

8.60
8.57
